# METHOD_SUMMARY: recombinant barcode read abundance after kanamycin selection (control-corrected) (log10(CPM+1)); higher = more efficient recombination; sequences stand for … in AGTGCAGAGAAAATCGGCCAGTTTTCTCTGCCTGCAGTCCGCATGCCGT…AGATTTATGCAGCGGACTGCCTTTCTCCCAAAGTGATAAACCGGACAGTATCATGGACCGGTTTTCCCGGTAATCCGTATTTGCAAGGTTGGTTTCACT; site = the 11-nt target;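 note: IS621 recombinase and bridge RNA in Escherichia coli cells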
OBSERVATION_TYPE: recombinant barcode read abundance (log10)
Respond numerically, and do not add a unit to the figure.

Sample CGGCACACTTGGGTTCTAACCTGTTGCGG (site CGGAACACTCC) ; recombinant barcode read abundance (log10) observed: 0.06

Entry TCAATCCCTTGGGTTCTAACCTGTTGCCT (site TCAATCCCTAG) — recorded recombinant barcode read abundance (log10) = 0.326

The reported recombinant barcode read abundance (log10) of the sequence GCTTGAACTTGGGTTCTAACCTGTTGCTT (site GGTTGAACTAT) was 0.0501

Briefly, recombinant barcode read abundance (log10) measured for TGTCCTGCTTGGGTTCTAACCTGTTGCCT (site AGTCCTGCTAG) : 0

Item: TACGGGTCTTGGGTTCTAACCTGTTGCCT (site TACGGGTCTAG) | recombinant barcode read abundance (log10): 1.16

Lab note: measured recombinant barcode read abundance (log10) of AGGCCGTCTTGGGTTCTAACCTGTTGCGT (site AGGCAGTCTAG) was 0.195

recombinant barcode read abundance (log10) measured on CATTCACCTTGGGTTCTAACCTGTTGCCT (site AATTCACCTAG) = 0.153

Value of recombinant barcode read abundance (log10) reported for the sequence CGGATAGCTTGGGTTCTAACCTGTTGCCT (site CGGATGGCTAG) is 0.153

Notebook: GATAGTGCTTGGGTTCTAACCTGTTGCCT (site GATAGTTCTAG) , recombinant barcode read abundance (log10) read as 0.0158

Per the record, AACTATCCTTGGGTTCTAACCTGTTGCAT (site AACTTTCCTAT) has recombinant barcode read abundance (log10) of 0.196

Value of measured recombinant barcode read abundance (log10) for the entry CAGTTGTCTTGGGTTCTAACCTGTTGCCT (site AAGTTGTCTAC) : 0.0187

The value of recombinant barcode read abundance (log10) measured for the sequence CTAGTGTCTTGGGTTCTAACCTGTTGCAC (site CTAGTCACTGT) turned out to be 0.198

Sure, the documented recombinant barcode read abundance (log10) for AGTGAACCTTGGGTTCTAACCTGTTGCCT (site AGCTAACCTAG) is 0.013

Sure, the documented recombinant barcode read abundance (log10) for ACGGCTTCTTGGGTTCTAACCTGTTGCTA (site AGGGCTTCTTA) is 0.485

// field: recombinant barcode read abundance (log10); key: GTCGGAGCTTGGGTTCTAACCTGTTGCTG (site GTCGGAGCTCT) ; value = 0.737

So, GGTTGCCCTTGGGTTCTAACCTGTTGCGG (site GGTTGTCCTCC) ? Its recombinant barcode read abundance (log10) was 0.0903

// recombinant barcode read abundance (log10) lookup, sequence = GACTCTACTTGGGTTCTAACCTGTTGCTT (site GAATCTACTAA) , result: 0.0131

Input CCACACACTTGGGTTCTAACCTGTTGCCT (site CAATACACTAG) . Output recombinant barcode read abundance (log10): 0.0103

Looking up GTCAAGCCTTGGGTTCTAACCTGTTGCTG (site GTCAAGCCTCA) , I found its recombinant barcode read abundance (log10) recorded as 1.23

# recombinant barcode read abundance (log10) (sequence: GAGCCTACTTGGGTTCTAACCTGTTGCTA (site AAGCCTACTTA) ) is 0.25

sequence TGGAGCCCTTGGGTTCTAACCTGTTGCAT (site TGGAGCCCTTT) , recombinant barcode read abundance (log10) observed: 0.15
